Experiment: in vivo
Details: both, SD, rat, plasma, po, 20 mg/kg
OUTCOME MEASURE: AUC(0-t) (ng·h/mL)

SMILES TEXT	NUMERIC READOUT
C[C@@H](O)CN1CC2CCC(C1)N2c1nc(OCC2(CN3CCC(=C(F)F)CC3)CC2)nc2c(F)c(-c3ncc(F)c4sc(N)c(C#N)c34)c3c(c12)COC3	5170

###

Test: in vivo
Conditions: both, SD, rat, plasma, po, 40 mg/kg

SMILES TEXT	READOUT UNITS	AUC(0-t)
C[C@@H](O)CN1CC2CCC(C1)N2c1nc(OCC2(CN3CCC(=C(F)F)CC3)CC2)nc2c(F)c(-c3ncc(F)c4sc(N)c(C#N)c34)c3c(c12)COC3	ng·h/mL	17600

###

Assay: Pharmacokinetic evaluation, mouse experiment (oral gavage, plasma LC-MS/MS)
Format: in vivo
Details: balb/c nude mice, female, oral gavage (i.g.), 20.0 mg/kg, read-out: Half life T1/2 (converted)
OUTCOME MEASURE: half-life (h)

SMILES TEXT	NUMERIC READOUT
C[C@@H](O)CN1CC2CCC(C1)N2c1nc(OCC2(CN3CCC(=C(F)F)CC3)CC2)nc2c(F)c(-c3ncc(F)c4sc(N)c(C#N)c34)c3c(c12)COC3	2.87

###

Test: in vivo
Settings: rat, in vivo, po, 20 mg/kg
OUTCOME MEASURE: Cmax (ng/mL)

MOLECULE	NUMERIC READOUT
N#Cc1c(N)sc2c(F)ccc(-c3c4c(c5cnc(OC[C@@]67CCCN6C[C@H](F)C7)nc5c3Cl)COC4)c12 (single isomer, unassigned) [60A (reference), reference compound]	143

###

Experiment: in vivo
Conditions: both, SD, rat, plasma, po, 40 mg/kg
OUTCOME MEASURE: Cmax (ng/mL)

SMILES TEXT	OUTCOME MEASURE	NUMERIC READOUT
C[C@@H](O)CN1CC2CCC(C1)N2c1nc(OCC2(CN3CCC(=C(F)F)CC3)CC2)nc2c(F)c(-c3ncc(F)c4sc(N)c(C#N)c34)c3c(c12)COC3	Cmax	1170

###

System: AsPC-1
Test: 3D cell proliferation inhibition assay (CellTiter-Glo 3D)
Assay type: cell-based
Conditions: Homo sapiens, ASPC1, 120 h; AsPC-1 cells, KRAS G12D, 3D culture, 5 days with compound
pIC50: −log10 of the molar value.

MOLECULE	pIC50
N#Cc1c(N)sc2c(F)ccc(-c3c4c(c5cnc(OCC67CCCN6CC(=CF)C7)nc5c3F)COC4)c12 (stereo not shown)	7.83
C[C@@H](O)CN1CC2CCC(C1)N2c1nc(OCC2(C#N)CC2)nc2c(F)c(-c3ncc(F)c4sc(N)c(C#N)c34)c3c(c12)COC3 [58 (reference), reference compound]	5.48
C[C@@H](O)CN1CC2CCC(C1)N2c1nc(OCC2(CN3CCC(=CF)CC3)CC2)nc2c(F)c(-c3ncc(F)c4sc(N)c(C#N)c34)c3c(c12)COC3	8.38
N#Cc1c(N)sc2c(F)cnc(-c3c4c(c5c(N6C7CCC6CNC7)nc(OCC6(CN7CCC(=CF)CC7)CC6)nc5c3F)COC4)c12	8.29

###

# pIC50 per record follows
Tested on: AsPC-1
Experiment: 3D cell proliferation inhibition assay (CellTiter-Glo 3D)
Format: cell-based
Conditions: Homo sapiens, ASPC1, 120 h; AsPC-1 cells, KRAS G12D, 3D culture, 5 days with compound
pIC50: −log10 of the molar value.

COMPOUND	pIC50
N#Cc1c(N)sc2c(F)ccc(-c3c4c(c5c(N6C7CCC6CNC7)nc(OCC6(CN7CCC(=CF)CC7)CC6)nc5c3F)COC4)c12 [Example 9]	8.00
N#Cc1c(N)sc2c(F)ccc(-c3c4c(c5cnc(OCC67CCCN6CC(=C(F)F)C7)nc5c3F)COC4)c12 (single isomer, unassigned) [Example 44A]	8.08
N#Cc1c(N)sc2c(F)cnc(-c3c4c(c5c(N6C7CCC6CNC7)nc(OCC6(CN7CCC(=C(F)F)CC7)CC6)nc5c3F)COC4)c12 [Example 20]	8.12
N#Cc1c(N)sc2c(F)cnc(-c3c4c(c5c(N6C7CCC6CN(O)C7)nc(OCC6(CN7CCC(=CF)CC7)CC6)nc5c3F)COC4)c12 [Example 22]	8.33
C[C@@H](O)CN1CC2CCC(C1)N2c1nc(OCC2(CN3CCC(=C(F)F)CC3)CC2)nc2c(F)c(-c3ncc(F)c4sc(N)c(C#N)c34)c3c(c12)COC3 [Example 2]	8.21
N#Cc1c(N)sc2c(F)ccc(-c3c4c(c5cnc(OCC6(CN7CCC(=CF)CC7)CC6)nc5c3Cl)COC4)c12 [Example 39]	8.12
